# System: CAKI-1
# METHOD_NOTES: NCI tumour cell line growth inhibition, 48 h
Active and inactive are the calls of the source. Cut-off read from the data, not from the text of the source: active = GI50 up to about 1.1 µM and inactive = higher.
Classes used: active, inactive

{"MOLECULE": "CC(=O)C1(c2ccccc2)CCCN(C)CC1 (stereo unspecified)", "GROUP_LABEL": "inactive"}
{"MOLECULE": "CC1(C)[C@@H](Cn2nnc3c(N)ncnc32)CC[C@@]1(C)CO", "GROUP_LABEL": "inactive"}
{"MOLECULE": "COc1cc([C@@]23OC[C@@H]4[C@@H](OC[C@@H]42)c2cc4c(cc23)OCO4)cc(OC)c1OC", "GROUP_LABEL": "active"}
{"MOLECULE": "CC1CN(C(=O)CN2CCC(CCCCN(C)C)CC2)c2ccccc2NC1=O (stereo unspecified)", "GROUP_LABEL": "inactive"}
{"MOLECULE": "CO/C(=N\\N=C(/c1ccccc1)C(F)(F)F)c1ccncc1", "GROUP_LABEL": "inactive"}
{"MOLECULE": "C=CCCCC1CCCNC1=S (stereo unspecified)", "GROUP_LABEL": "inactive"}
{"MOLECULE": "NC(=O)N/N=C(\\C(=O)C(=O)Nc1ccc(Cl)c(C(F)(F)F)c1)c1nc2ccc(C(=O)c3ccccc3)cc2nc1O", "GROUP_LABEL": "inactive"}
{"MOLECULE": "CCCCCCCCCCCCCCCC(=O)OCC1OC(OC)C2NP(=O)(N(CCCl)CCCl)OC1C2O (stereo unspecified)", "GROUP_LABEL": "active"}
{"MOLECULE": "O=C1C(=O)N(c2cc(Cl)ccc2Cl)C(=O)C(=O)C1c1nc2ccccc2o1", "GROUP_LABEL": "inactive"}
{"MOLECULE": "COc1ccccc1C(=O)Nc1ccc(Cl)c(C(=O)OC(C)C)c1", "GROUP_LABEL": "inactive"}
{"MOLECULE": "O=C(O)CP(=S)(S)c1ccccc1 (stereo unspecified)", "GROUP_LABEL": "inactive"}
